Known glycan array binding signal (z-score) of a selection of binders
Biological target: Gal(b1-3)GlcNAc(b1-3)Gal(b1-3)GlcNAc
Assay: glycan array binding signal (z-score within array); higher = stronger binding
Details: glycan notation: IUPAC condensed, linker removed
This is one part of a sample in which the strongest signals are shown more often than they occur.
measured.attribute: glycan array binding signal (z-score)

Epa3to1 (Candida glabrata) (protein) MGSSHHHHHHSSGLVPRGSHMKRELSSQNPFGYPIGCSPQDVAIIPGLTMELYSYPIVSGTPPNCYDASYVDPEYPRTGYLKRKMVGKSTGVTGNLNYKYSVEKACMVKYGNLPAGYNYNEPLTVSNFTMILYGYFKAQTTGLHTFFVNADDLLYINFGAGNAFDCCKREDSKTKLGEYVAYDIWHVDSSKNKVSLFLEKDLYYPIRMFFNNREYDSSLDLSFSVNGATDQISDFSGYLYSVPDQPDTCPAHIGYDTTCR: -0.713
Epa9 (Candida glabrata), CAGL0A01386g (protein) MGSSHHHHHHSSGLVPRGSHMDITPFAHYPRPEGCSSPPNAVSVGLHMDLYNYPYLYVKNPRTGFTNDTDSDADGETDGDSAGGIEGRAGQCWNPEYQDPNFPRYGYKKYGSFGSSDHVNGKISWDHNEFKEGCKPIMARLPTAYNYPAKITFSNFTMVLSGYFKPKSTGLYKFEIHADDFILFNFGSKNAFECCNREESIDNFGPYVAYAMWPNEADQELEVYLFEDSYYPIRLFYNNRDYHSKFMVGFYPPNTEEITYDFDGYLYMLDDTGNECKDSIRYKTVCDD: -0.11
RBMC1 (Vibrio cholerae) (protein) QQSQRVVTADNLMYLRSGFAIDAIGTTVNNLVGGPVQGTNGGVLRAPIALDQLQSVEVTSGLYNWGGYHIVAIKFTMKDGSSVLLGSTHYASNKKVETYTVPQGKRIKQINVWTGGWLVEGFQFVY: -0.311
Epa7 (Candida glabrata), Q6DTM6_CANGB (protein) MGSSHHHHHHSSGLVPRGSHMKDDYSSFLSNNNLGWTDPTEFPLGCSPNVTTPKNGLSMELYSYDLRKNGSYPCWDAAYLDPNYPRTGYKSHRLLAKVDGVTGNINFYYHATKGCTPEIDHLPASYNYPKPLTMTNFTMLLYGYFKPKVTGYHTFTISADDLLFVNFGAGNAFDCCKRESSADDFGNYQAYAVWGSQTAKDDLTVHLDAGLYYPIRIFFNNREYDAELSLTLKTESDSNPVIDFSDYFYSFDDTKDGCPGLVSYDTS: -0.207
